experiment: chemical genetic growth profiling, strain panel (AID 1159580);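 further: tested at 20 µM; growth read once vehicle control cultures reached saturation at 30 °C; 1 = growth at the plate median or of vehicle wells; lower values mean less growth of the strain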; conditions: S. cerevisiae deletion strains, growth OD, locus YER167W, strain BCK2, stronger effect = lower value
In all, about 5,500 compounds went through this assay and about 2,000 (36%) were called active. Another 18% or so got no clear call; they are omitted. Some of the results follow.
normalized growth: recorded values
// print number alone

Study these solved cases before continuing.
{"COMPOUND": "Cc1onc(-c2ccccc2)c1C(=O)NC1C(=O)N2[C@@H]1SC(C)(C)[C@@H]2C(=O)O (some centres undefined)", "normalized growth": 1.01}
{"COMPOUND": "CN1C(=O)CCS(=O)(=O)C1c1ccc(Cl)cc1 (centres undefined)", "normalized growth": 1.01}
{"COMPOUND": "CC1(C)S[C@@H]2[C@H](NC(=O)Cc3ccccc3)C(=O)N2[C@H]1C(=O)O", "normalized growth": 1}
{"COMPOUND": "CC1(C)C(=O)[C@@H]2C[C@@]3(O)C4=CC(=O)O[C@@H](c5ccoc5)[C@]4(C)CCC3[C@@](C)(C2=O)[C@H]1CC(=O)O (some centres undefined)", "normalized growth": 1}
{"COMPOUND": "CC(=O)OCC(=O)[C@@]12OC3(CCCC3)O[C@@H]1CC1C3CCC4=CC(=O)C=C[C@]4(C)[C@@]3(F)[C@@H](O)C[C@@]12C (some centres undefined)", "normalized growth": 1.02}

# get_value(readout='normalized growth', item= CCOc1cccc(C(=O)c2ccc(O)c(O)c2O)c1 ) 0.909

# get_value(readout='normalized growth', item= Cc1onc(-c2ccccc2Cl)c1C(=O)N[C@@H]1C(=O)N2[C@@H]1SC(C)(C)[C@@H]2C(=O)O ) 1.01

# get_value(readout='normalized growth', item= COc1cccc(OC)c1C(=O)N[C@@H]1C(=O)N2[C@@H]1SC(C)(C)[C@@H]2C(=O)O ) 0.999

# get_value(readout='normalized growth', item= COc1ccc2c(c1)[C@]13CCCC[C@H]1[C@H](C2)N(C)CC3 ) 1.01
